Tested on: L6
assay_remarks: Cytotoxicity against rat L6 cells assessed as reduction in cell viability at up to 30 uM
Format: cell-based
quantity_name: Activity

Some solved cases for reference:
molecule=CC1(C)NC(=O)N(c2ccc(C(F)(F)F)nc2)C1=O test_value=Non-Toxic
molecule="CC1(C)NC(=O)C(c2ccc(F)c(C(F)(F)F)c2)C1=O (stereo not given)" test_value=Non-Toxic
molecule=CC1(C)C(=O)N(c2ccc(F)c(C(F)(F)F)c2)C(=O)N1S(C)(=O)=O test_value=Non-Toxic
molecule=CC1(C)OC(=O)N(c2ccc(F)c(C(F)(F)F)c2)C1=O test_value=Non-Toxic

Field Activity (L6), entry CC1(C)CC(=O)N(c2ccc(F)c(C(F)(F)F)c2)C1=O : Non-Toxic
